# Study System: SALL4 ZFC4 G921D (HT-SELEX) (Mus musculus, UniProt Q8BX22 870-940, G921D)
# Sequence: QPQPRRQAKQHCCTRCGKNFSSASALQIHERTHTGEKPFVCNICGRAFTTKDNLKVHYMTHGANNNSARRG
# Assay Remarks: HT-SELEX; high values mean tight binding
# Conditions Used: protein: recombinant; vector His6-GST; dsDNA, one strand shown
Threshold check on binding signal: strictly below 1 fold-change vs cycle 0 is criterion met; on or above 1 fold-change vs cycle 0 is criterion not met.

- Input Sequence: "CGTTAG"
  Label Value: "criterion met"
- Input Sequence: "TAATAA"
  Label Value: "criterion not met"
- Input Sequence: "AGGAGA"
  Label Value: "criterion not met"
- Input Sequence: "AAAGAA"
  Label Value: "criterion not met"

**Query** Lab log: compare recorded binding signal with 1 fold-change vs cycle 0; is it strictly lower for `GCGAGA` ?
**Result** criterion met

**Query** And then `CGGAAA` , what is it?
**Result** criterion met

**Query** And then `CTAAAA` , what is it?
**Result** criterion not met
